Data origin: PubChem BioAssay

experimental-details: decreased DLD-1 cellular survival, CellTiter-Glo luminescent readout, NPC compound collection, primary HTS (AID 1117346)
stated-conditions: DLD-1 viability, CellTiter-Glo luminescence; at 20 µM (top of the series)
// reported viability decrease (inhibition) per item
Write the number in % without appending the unit.

Here are 4 compounds together with their reported answers.
1. CC(=O)O[C@@H]1C(=O)O[C@@H]2[C@H]1OC(=O)[C@@H]2OC(C)=O : 4.6
2. NCCNc1ccc(NCCN)c2c1C(=O)c1ccncc1C2=O : 14.7
3. C[C@@H]1CCC[C@H](C)N1CCCC(O)(c1ccccc1)c1ccccn1 (stereo not given in full) : -14.8
4. C/C(=C(/OCCOc1ccc(Cl)cc1)c1ccc(Cl)cc1Cl)n1ccnc1 : 105

For the next question, use this compound.
Problem: Would you kindly share the measured viability decrease (inhibition) for O=C(O)[C@@H]1CCCN1 ?
Solution: 57.9
